Test: Solubility by gravimetric method in 14 solvents
Assay type: physicochemical
Conditions: dioxane, 50 °C, organic solvent or mixture, thermodynamic from solid
Procedure: Solubility measurements were done by gravimetric method in 14 different solvents at two temperatures (23° C. and 50° C.). About 25-35 mg solid was dispensed in 2 mL vials and 0.75 mL solvent was added to form a slurry. The slurries were then stirred for two days. The vials were centrifuged and the supernatant was collected for solubility measurement by gravimetric method.
Endpoint: solubility at 2 days

Answer with the recorded solubility at 2 days for the molecule listed here: CCNn1c(C)c(C(=O)N[C@H](c2ccccc2)C2CC2)c2cccc(F)c2c1=O
> 74 mg/mL

###

assay: Solubility in buffered solutions vs pH at 37 °C (HPLC); format: physicochemical; details: KHP/NaOH 0.05M buffer, aqueous buffer, thermodynamic from solid; KHP/NaOH 0.05M, initial pH 4.96, 24 h pH 4.99, 37 °C; read-out: Solubility at 24 h
Endpoint: solubility at 24 h (µg/mL)
Answers are plain numbers, in µg/mL.

Answer with the recorded solubility at 24 h for the compound listed here: CCNn1c(C)c(C(=O)N[C@H](c2ccccc2)C2CC2)c2cccc(F)c2c1=O
8.3
